Reference for the values: patent US20250145711A1

Experimental system: T1, CD3 on primary human pan T cells (human, UniProt P07766 23-207)
T1 construct: on cells it stands in the TCR/CD3 complex; also called Pan T-cells (CD3-positive); endogenous CD3
T1 sequence (P07766 23-207 limits assumed): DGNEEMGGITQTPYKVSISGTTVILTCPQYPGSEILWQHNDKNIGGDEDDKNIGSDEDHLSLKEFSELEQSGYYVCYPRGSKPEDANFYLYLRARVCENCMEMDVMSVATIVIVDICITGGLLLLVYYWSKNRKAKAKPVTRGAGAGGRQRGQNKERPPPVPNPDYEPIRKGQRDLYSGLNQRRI
Assay procedure: flow cytometry, pan T-cells

Binder	% Binding retained on T-cells, 55° C., fraction
CD3B2073 (scFv) scFv: QVQLVQSGAEVKKPGSSVKVSCKASGYTFTRSTMHWVRQAPGQGLEWMGYINPSSAYTNYNQKFQGRVTLTADKSTSTAYMELSSLRSEDTAVYYCASPQVHYDYNGFPYWGQGTLVTVSSGGSEGKSSGSGSESKSTGGSEIVLTQSPATLSASPGERVTLSCSASSSVSYMNWYQQKPGQAPRRWIYDSSKLASGVPARFSGSGSGRDYTLTISSLEPEDFAVYYCQQWSRNPPTFGGGTKVEIK	0.993
CD3B2079 (scFv) scFv: QVQLVQSGAEVKKPGSSVKVSCKASGYTFTRSTMHWVRQAPGQGLEWIGYINPSSAYTNYAQKFQGRVTLTADKSTSTAYMELSSLRSEDTAVYYCASPQVHYDYNGFPYWGQGTLVTVSSGGSEGKSSGSGSESKSTGGSEIVLTQSPATLSASPGERVTLSCSASSSVSYMNWYQQKPGTAPRRLIYDSSKLASGVPARFSGSGSGRDYTLTISSLEPEDFAVYYCQQWSRNPPTFGGGTKVEIK	1.06
CD3B2077 (scFv) scFv: QVQLVQSGAEVKKPGSSVKVSCKASGYTFTRSTMHWVRQAPGQGLEWIGYINPSSAYTNYAQKFQGRVTLTADKSTSTAYMELSSLRSEDTAVYYCASPQVHYDYNGFPYWGQGTLVTVSSGGSEGKSSGSGSESKSTGGSEIVLTQSPATLSASPGERVTLSCSASSSVSYMNWYQQKPGTAPRRWIYDSSKLASGVPARFSGSGSGRDYTLTISSLEPEDFAVYYCQQWSRNPPTFGGGTKVEIK	1.03
